# measurementTarget: c-KIT D816H kinase (Homo sapiens, UniProt P10721, D816H)
# Construct: The construct contains residues T544-V976 of cKit; GST (N); TEV cleavage site (internal)
# Sequence (P10721 544-976 D816H): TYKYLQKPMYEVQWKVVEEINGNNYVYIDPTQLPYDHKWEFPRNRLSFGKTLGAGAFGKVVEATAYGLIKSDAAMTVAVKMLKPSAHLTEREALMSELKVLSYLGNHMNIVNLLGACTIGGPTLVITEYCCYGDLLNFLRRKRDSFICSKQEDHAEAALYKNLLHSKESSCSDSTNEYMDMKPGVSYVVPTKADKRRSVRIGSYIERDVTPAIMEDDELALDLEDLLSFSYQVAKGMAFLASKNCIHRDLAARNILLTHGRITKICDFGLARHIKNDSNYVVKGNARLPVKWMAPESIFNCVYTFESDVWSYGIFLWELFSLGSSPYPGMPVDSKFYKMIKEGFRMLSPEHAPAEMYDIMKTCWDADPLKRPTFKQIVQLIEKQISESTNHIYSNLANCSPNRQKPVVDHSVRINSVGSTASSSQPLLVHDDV
# protocol: c-KIT D816H Kinase Assay
# condition: enzymatic assay, ATP 200 µM
pIC50: −log10 of the molar value.
measurementType: pIC50

Use these answered entries as a reference point.
- compound: "CCn1c(=O)c(-c2cc(NC(=O)Nc3cc(F)cc(F)c3)c(F)cc2Cl)cc2cnc(NC)cc21 [Example 55]"
  pIC50: "> 8.00"
- compound: "CCn1c(=O)c(-c2cc(NC(=O)Nc3ccccc3)c(F)cc2Cl)cc2cnc(NC(=O)N3CC[C@@H](N(C)C)C3)cc21 [Example 84]"
  pIC50: "7.00 to 8.00"
- compound: "CCn1c(=O)c(-c2cc(NC(=O)Nc3csc4ccccc34)c(F)cc2C)cc2cnc(NC(=O)N(C)C)cc21 [Example 104]"
  pIC50: "7.00 to 8.00"
- compound: "CCn1c(=O)c(-c2cc(NC(=O)Nc3ccccc3)c(F)cc2C)cc2cnc(NC(=O)N3CC(N(C)C)C3)cc21 [Example 113]"
  pIC50: "> 8.00"
- compound: "CCn1c(=O)c(-c2cc(NC(=O)Nc3cc(F)cc(F)c3)c(F)cc2C)cc2cnc(NC)cc21 [Example 60]"
  pIC50: "7.00 to 8.00"
- compound: "CCn1c(=O)c(-c2cc(NC(=O)Nc3cccc(F)c3)c(F)cc2C)cc2cnc(NC(=O)N(C)C)cc21 [Example 106]"
  pIC50: "> 8.00"
- compound: "CCn1c(=O)c(-c2cc(NC(=O)Nc3ccc(F)c(CN4CCN(C)CC4)c3)c(F)cc2C)cc2cnc(N)cc21 [Example 93]"
  pIC50: "7.00 to 8.00"
- compound: "CCn1c(=O)c(-c2cc(NC(=O)Nc3cc(F)cc(F)c3)c(F)cc2Cl)cc2cnc(NC(C)=O)cc21 [Example 67]"
  pIC50: "> 8.00"
- compound: "CCn1c(=O)c(-c2cc(NC(=O)Nc3ccccc3F)c(F)cc2Cl)cc2cnc(NCCOC)cc21 [Example 35]"
  pIC50: "7.00 to 8.00"
- compound: "CCn1c(=O)c(-c2cc(NC(=O)Nc3ccccc3)c(F)cc2F)cc2cnc(NC(=O)N(C)C)cc21 [Example 112]"
  pIC50: "> 8.00"

Please state recorded pIC50 (tested on c-KIT D816H kinase (Homo sapiens, UniProt P10721, D816H)) of CCn1c(=O)c(-c2cc(NC(=O)Nc3cccc(F)c3)c(F)cc2Cl)cc2cnc(NC)cc21 [Example 24] > 8.00

Please state recorded pIC50 (tested on c-KIT D816H kinase (Homo sapiens, UniProt P10721, D816H)) of CCn1c(=O)c(-c2cc(NC(=O)Nc3ccc(F)c(CN4CCN(C)CC4)c3)c(F)cc2C)cc2cnc(NC=O)cc21 [Example 100] 6.00 to 7.00

Please state recorded pIC50 (tested on c-KIT D816H kinase (Homo sapiens, UniProt P10721, D816H)) of CCn1c(=O)c(-c2cc(NC(=O)Nc3ccccc3)c(F)cc2Cl)cc2cnc(NC(C)=O)cc21 [Example 54] > 8.00

Please state recorded pIC50 (tested on c-KIT D816H kinase (Homo sapiens, UniProt P10721, D816H)) of CCn1c(=O)c(-c2cc(NC(=O)Nc3ccccc3)c(F)cc2F)cc2cnc(NCCOC)cc21 [Example 36] 7.00 to 8.00

Please state recorded pIC50 (tested on c-KIT D816H kinase (Homo sapiens, UniProt P10721, D816H)) of CNc1cc2c(cn1)cc(-c1cc(NC(=O)Nc3cccc(F)c3)c(F)cc1Cl)c(=O)n2C(C)C [Example 77] 7.00 to 8.00

----------
# measurementTarget: c-KIT kinase (Homo sapiens)
# Sequence (P10721 544-976): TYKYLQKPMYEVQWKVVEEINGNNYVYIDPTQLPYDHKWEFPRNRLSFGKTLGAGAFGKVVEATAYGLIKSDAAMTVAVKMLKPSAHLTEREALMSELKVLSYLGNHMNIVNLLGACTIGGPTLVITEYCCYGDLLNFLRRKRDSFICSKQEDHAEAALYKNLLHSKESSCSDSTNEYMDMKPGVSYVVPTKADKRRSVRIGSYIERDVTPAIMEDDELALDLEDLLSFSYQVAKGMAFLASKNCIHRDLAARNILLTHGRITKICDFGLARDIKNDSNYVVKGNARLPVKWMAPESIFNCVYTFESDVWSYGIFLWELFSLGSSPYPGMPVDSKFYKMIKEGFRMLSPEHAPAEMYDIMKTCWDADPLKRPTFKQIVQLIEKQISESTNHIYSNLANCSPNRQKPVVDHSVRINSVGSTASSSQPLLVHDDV
# protocol: c-KIT kinase Assay
# Assay type: biochemical
# Set-up: cKIT residues T544-V976; GST (N); TEV cleavage site (internal); purchased deCODE Biostructures
# condition: enzymatic assay, ATP 200 µM; read-out: KIT (wt) IC50
measurementType: IC50

Use these answered entries as a reference point.
- structureAsSmiles: "CCn1c(=O)c(-c2cc(NC(=O)Nc3ccccc3)c(F)cc2F)cc2cnc(NC)cc21"
  IC50: "< 0.01 µM"
- structureAsSmiles: "CCn1c(=O)c(-c2cc(NC(=O)Nc3cc(F)cc(F)c3)c(F)cc2F)cc2cnc(NC)cc21"
  IC50: "< 0.01 µM"
- structureAsSmiles: "CCn1c(=O)c(-c2cc(NC(=O)Nc3ccccc3)ccc2Cl)cc2cnc(NC)cc21"
  IC50: "< 0.01 µM"

--- query ---
For the molecule CCn1c(=O)c(-c2cc(NC(=O)Nc3ccccc3)c(F)cc2C)cc2cnc(NC)cc21 , what IC50 is on record? < 0.01 µM

----------
# measurementTarget: UniProt P10721
# protocol: c-KIT kinase Assay
# Format: biochemical
# Parameters: cKIT residues T544-V976; GST (N); TEV cleavage site (internal); purchased deCODE Biostructures
# condition: enzymatic assay, ATP 200 µM; read-out: KIT (wt) IC50
pIC50: −log10 of the molar value.
pIC50 reference

Use these answered entries as a reference point.
- structureAsSmiles: "CCn1c(=O)c(-c2cc(NC(=O)Nc3ccccc3F)c(F)cc2Cl)cc2cnc(NCCOC)cc21"
  pIC50: "> 8.00"
- structureAsSmiles: "CCn1c(=O)c(-c2cc(NC(=O)Nc3cc(F)cc(F)c3)c(F)cc2C)cc2cnc(NC)cc21"
  pIC50: "> 8.00"
- structureAsSmiles: "CCn1c(=O)c(-c2cc(NC(=O)Nc3cccc(F)c3)c(F)cc2C)cc2cnc(N)cc21"
  pIC50: "> 8.00"
- structureAsSmiles: "CCn1c(=O)c(-c2cc(NC(=O)Nc3ccccc3)c(F)cc2F)cc2cnc(NC(=O)N(C)C)cc21"
  pIC50: "> 8.00"
- structureAsSmiles: "CCn1c(=O)c(-c2cc(NC(=O)Nc3cccc(CN4CCN(C)CC4)c3)c(F)cc2C)cc2cnc(NC)cc21"
  pIC50: "7.00 to 8.00"
- structureAsSmiles: "CCn1c(=O)c(-c2cc(NC(=O)Nc3cccc(C#N)c3)c(F)cc2Cl)cc2cnc(NC)cc21"
  pIC50: "> 8.00"
- structureAsSmiles: "CCn1c(=O)c(-c2cc(NC(=O)Nc3cccc(F)c3)c(F)cc2Cl)cc2cnc(NC)cc21"
  pIC50: "> 8.00"
- structureAsSmiles: "CCn1c(=O)c(-c2cc(NC(=O)Nc3ccccc3F)c(F)cc2Cl)cc2cnc(NC)cc21"
  pIC50: "> 8.00"

Please state recorded pIC50 (tested on UniProt P10721) of CCn1c(=O)c(-c2cc(NC(=O)Nc3cccc(F)c3)c(F)cc2Cl)cc2cnc(N)cc21 > 8.00

Please state recorded pIC50 (tested on UniProt P10721) of CCn1c(=O)c(-c2cc(NC(=O)Nc3cccc4ccccc34)c(F)cc2C)cc2cnc(NC)cc21 > 8.00

Please state recorded pIC50 (tested on UniProt P10721) of CCn1c(=O)c(-c2cc(NC(=O)Nc3cc(F)ccc3F)c(F)cc2F)cc2cnc(NC)cc21 > 8.00

----------
# measurementTarget: c-KIT V654A kinase (Homo sapiens, UniProt P10721, V654A)
# Construct: residues T544-V976 with N-terminal GST fusion
# Sequence (P10721 544-976 V654A): as the sequence (P10721 544-976) above, with V111A counted along it
# protocol: c-KIT V654A Kinase Assay
# condition: enzymatic assay, ATP 200 µM
IC50 reference

- compound: "CCn1c(=O)c(-c2cc(NC(=O)Nc3cc(F)cc(Cl)c3)c(F)cc2C)cc2cnc(NC)cc21 [Example 69]"
  measurementTarget: "c-KIT V654A kinase (Homo sapiens, UniProt P10721, V654A)"
  value: "10 to 100 nM"
- compound: "CCn1c(=O)c(-c2cc(NC(=O)Nc3cc(F)cc(F)c3)c(F)cc2C)cc2cnc(NC(=O)N(C)C)cc21 [Example 108]"
  measurementTarget: "c-KIT V654A kinase (Homo sapiens, UniProt P10721, V654A)"
  value: "100 to 1000 nM"
- compound: "CCn1c(=O)c(-c2cc(NC(=O)Nc3cccc(F)c3F)c(F)cc2Cl)cc2cnc(NC)cc21 [Example 4]"
  measurementTarget: "c-KIT V654A kinase (Homo sapiens, UniProt P10721, V654A)"
  value: "< 10 nM"
- compound: "CCn1c(=O)c(-c2cc(NC(=O)Nc3cccc(F)c3)c(F)cc2F)cc2cnc(NC)cc21 [Example 15]"
  measurementTarget: "c-KIT V654A kinase (Homo sapiens, UniProt P10721, V654A)"
  value: "< 10 nM"
- compound: "CCn1c(=O)c(-c2cc(NC(=O)Nc3cccc4ccccc34)c(F)cc2Cl)cc2cnc(NC)cc21 [Example 6]"
  measurementTarget: "c-KIT V654A kinase (Homo sapiens, UniProt P10721, V654A)"
  value: "10 to 100 nM"
- compound: "CCn1c(=O)c(-c2cc(NC(=O)Nc3ccccc3)c(F)cc2Cl)cc2cnc(NCCOC)cc21 [Example 27]"
  measurementTarget: "c-KIT V654A kinase (Homo sapiens, UniProt P10721, V654A)"
  value: "10 to 100 nM"
- compound: "CCn1c(=O)c(-c2cc(NC(=O)Nc3ccccc3)c(F)cc2F)cc2cnc(NCCOC)cc21 [Example 36]"
  measurementTarget: "c-KIT V654A kinase (Homo sapiens, UniProt P10721, V654A)"
  value: "10 to 100 nM"
- compound: "CCn1c(=O)c(-c2cc(NC(=O)Nc3ccccc3)c(F)cc2C)cc2cnc(NC)cc21 [Example 23]"
  measurementTarget: "c-KIT V654A kinase (Homo sapiens, UniProt P10721, V654A)"
  value: "< 10 nM"
- compound: "CCn1c(=O)c(-c2cc(NC(=O)Nc3ccccc3)c(F)cc2Cl)cc2cnc(NC(C)=O)cc21 [Example 54]"
  measurementTarget: "c-KIT V654A kinase (Homo sapiens, UniProt P10721, V654A)"
  value: "10 to 100 nM"
- compound: "CC(C)n1c(=O)c(-c2cc(NC(=O)Nc3ccccc3)c(F)cc2Cl)cc2cnc(NC(=O)N(C)C)cc21 [Example 103]"
  measurementTarget: "c-KIT V654A kinase (Homo sapiens, UniProt P10721, V654A)"
  value: "10 to 100 nM"

For the compound CCn1c(=O)c(-c2cc(NC(=O)Nc3ccccc3)c(F)cc2Br)cc2cnc(N)cc21 [Example 57] , what IC50 is on record? 10 to 100 nM

For the compound CC(C)n1c(=O)c(-c2cc(NC(=O)Nc3cccc(F)c3)c(F)cc2Cl)cc2cnc(NC(=O)N(C)C)cc21 [Example 98] , what IC50 is on record? 10 to 100 nM

For the compound CCn1c(=O)c(-c2cc(NC(=O)Nc3ccc(F)c(CN4CCN(C)CC4)c3)c(F)cc2C)cc2cnc(NC)cc21 [Example 89] , what IC50 is on record? 100 to 1000 nM

For the compound CCn1c(=O)c(-c2cc(NC(=O)Nc3ccccc3)c(F)cc2Cl)cc2cnc(NC(=O)N3CC(N(C)C)C3)cc21 [Example 102] , what IC50 is on record? 10 to 100 nM
